Target: PI3Kγ (p110γ) Recombinant Human Protein (Homo sapiens (Human), UniProt P48736)
Sequence (P48736 whole entry): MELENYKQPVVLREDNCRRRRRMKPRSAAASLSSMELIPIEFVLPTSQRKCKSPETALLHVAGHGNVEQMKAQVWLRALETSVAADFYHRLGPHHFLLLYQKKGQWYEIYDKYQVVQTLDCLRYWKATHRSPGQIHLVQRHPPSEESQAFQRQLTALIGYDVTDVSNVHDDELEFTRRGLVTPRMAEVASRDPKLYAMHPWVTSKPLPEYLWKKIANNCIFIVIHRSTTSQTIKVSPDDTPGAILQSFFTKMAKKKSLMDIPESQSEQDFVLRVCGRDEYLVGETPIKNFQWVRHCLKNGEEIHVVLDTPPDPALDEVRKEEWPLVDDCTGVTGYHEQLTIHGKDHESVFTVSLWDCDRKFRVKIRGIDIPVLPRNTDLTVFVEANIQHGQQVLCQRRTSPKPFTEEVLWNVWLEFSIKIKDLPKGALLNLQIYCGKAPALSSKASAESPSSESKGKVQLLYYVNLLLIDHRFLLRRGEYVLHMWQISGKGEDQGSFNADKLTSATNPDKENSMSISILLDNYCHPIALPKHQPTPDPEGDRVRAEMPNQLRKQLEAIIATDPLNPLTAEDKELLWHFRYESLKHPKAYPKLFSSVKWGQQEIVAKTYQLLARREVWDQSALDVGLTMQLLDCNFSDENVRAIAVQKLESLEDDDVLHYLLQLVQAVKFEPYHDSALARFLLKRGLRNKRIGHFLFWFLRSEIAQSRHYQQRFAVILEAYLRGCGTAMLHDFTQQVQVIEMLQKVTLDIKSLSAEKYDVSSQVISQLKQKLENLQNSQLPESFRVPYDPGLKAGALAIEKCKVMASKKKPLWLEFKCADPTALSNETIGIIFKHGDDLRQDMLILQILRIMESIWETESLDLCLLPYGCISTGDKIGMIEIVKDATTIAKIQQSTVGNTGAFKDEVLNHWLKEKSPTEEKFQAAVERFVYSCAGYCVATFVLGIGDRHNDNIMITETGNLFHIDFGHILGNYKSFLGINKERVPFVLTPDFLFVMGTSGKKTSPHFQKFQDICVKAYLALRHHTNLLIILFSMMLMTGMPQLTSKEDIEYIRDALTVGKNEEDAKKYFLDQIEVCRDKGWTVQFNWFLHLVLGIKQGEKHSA
Experiment: PI3K-γ scintillation proximity assay
Conditions: 2 μM ATP, 20 μM PIP2
pIC50: −log10 of the molar value. Counter-ions that a name gives are not always drawn.
Recorded measurements of pIC50, one per entry

{"MOLECULE": "CC(NC(=O)c1c(N)nn2cccnc12)c1cc(Cl)c2cn[nH]c2c1N1CCC(C(=O)N(C)C)CC1 (stereo not drawn) [Example 108, trifluoroacetate]", "pIC50": "> 7.00"}
{"MOLECULE": "CNS(=O)(=O)C1CCN(c2c(C(C)NC(=O)c3c(N)nn4cccnc34)cc(Cl)c3cn[nH]c23)C1 (stereo not drawn) [Example 92]", "pIC50": "> 7.00"}
{"MOLECULE": "CCC(NC(=O)c1c(N)nn2cccnc12)c1cc(Cl)c2c(C#N)ncn2c1N1CCS(=O)(=O)C(C)C1 (stereo not drawn) [Example 175, trifluoroacetate salt]", "pIC50": "> 7.00"}
